Here the recorded IC50 is given for each entry.
- System: PC-3
- Test Protocol: Anti-proliferation assay, PC-3
- Format: cell-based
- Experimental Conditions: Homo sapiens, PC-3; Table 8, biphenyl ureas; Prostate Cancer
Readout Name: IC50 (nM)

1. COc1ccc(NC(=O)Nc2cc3ccc(OC4CCN(C)CC4)c(C)c3oc2=O)cc1-c1cccc(O)c1 [OMe, OH] : 600
2. COc1ccc(NC(=O)Nc2cc3ccc(OC4CCN(C)CC4)c(C)c3oc2=O)cc1-c1cccc(OC(C)=O)c1 [OMe, OAc] : 1040
3. COc1cccc(-c2cc(NC(=O)Nc3cc4ccc(OC5CCN(C)CC5)c(C)c4oc3=O)ccc2OC)c1 [OMe, OMe] : 470

====

- System: MDA1986
- Test Protocol: Anti-proliferation assay, MDA1986
- Type: cell-based
- Experimental Conditions: MDA1986; Table 6, substituted phenyl ureas; HSNCC
Readout Name: log10 IC50 (log10 of the value in µM)

1. Cc1c(OC2CCN(C)CC2)ccc2cc(NC(=O)Nc3ccc(Br)cc3)c(=O)oc12 [p-Br] : 0.54
2. Cc1c(OC2CCN(C)CC2)ccc2cc(NC(=O)Nc3ccc(N(C)C)cc3)c(=O)oc12 [p-N-dimethylamine] : 1.24
3. Cc1c(OC2CCN(C)CC2)ccc2cc(NC(=O)Nc3ccc(C(F)(F)F)cc3)c(=O)oc12 [p-CF3] : -0.05
4. CC(=O)Oc1cccc(NC(=O)Nc2cc3ccc(OC4CCN(C)CC4)c(C)c3oc2=O)c1 [m-OAc] : 0.83
5. Cc1c(OC2CCN(C)CC2)ccc2cc(NC(=O)Nc3ccc(C(C)C)cc3)c(=O)oc12 [p-CH(CH3)2] : 0.05
6. Cc1c(OC2CCN(C)CC2)ccc2cc(NC(=O)Nc3ccc(OC(F)(F)F)cc3)c(=O)oc12 [p-OCF3] : -0.06
7. Cc1c(OC2CCN(C)CC2)ccc2cc(NC(=O)Nc3cccc(O)c3)c(=O)oc12 [m-OH] : 1.34
8. Cc1c(OC2CCN(C)CC2)ccc2cc(NC(=O)Nc3ccc(Cl)c(Cl)c3)c(=O)oc12 [3,4-dichloro] : 0.41

====

Listed molecules paired with reported pIC50
- System: SKBr3 (estrogen receptor negative, Her2 over-expressing breast cancer cells)
- Test Protocol: Anti-proliferation assay (MTS/PMS, 72 h), SKBr3
- Format: cell-based
- Experimental Conditions: Table 5, alkylether derivatives with cyclic N-substitutions; read-out: SKBr3
pIC50: −log10 of the molar value.
Readout Name: pIC50

1) CC(C)=CCc1cc(C(=O)Nc2cc3ccc(OCCCN(C)C4CCCCC4)c(C)c3oc2=O)ccc1O [Compound 70b] : 6.01
2) CC(C)=CCc1cc(C(=O)Nc2cc3ccc(OCCCNc4ccccc4)c(C)c3oc2=O)ccc1O [Compound 70c] : < 4.30
3) CC(C)=CCc1cc(C(=O)Nc2cc3ccc(OCCCN(C)c4ccccc4)c(C)c3oc2=O)ccc1O [Compound 70d] : < 4.30

====

- System: SKBr3 (estrogen receptor negative, Her2 over-expressing breast cancer cells)
- Test Protocol: Anti-proliferation assay (MTS/PMS, 72 h), SKBr3
- Format: cell-based
- Experimental Conditions: Table 9, non-aryl ureas; Breast Cancer; read-out: IC50 SKBr3
- Description: Cells were maintained in a 1:1 mixture of Advanced DMEM/F12 (Gibco) supplemented with non-essential amino acids, L-glutamine (2 mM), streptomycin (500 μg/mL), penicillin (100 units/mL), and 10% FBS. […] At 72 h, the number of viable cells was determined using an MTS/PMS cell proliferation kit (Promega) per the manufacturer's instructions. […] IC50 values were calculated from separate experiments performed in triplicate using GraphPad Prism. […]
Readout Name: IC50 (nM)

1) Cc1c(OC2CCN(C)CC2)ccc2cc(NC(=O)NC3CCCCC3)c(=O)oc12 [drawing 155] : 3830
2) Cc1c(OC2CCN(C)CC2)ccc2cc(NC(=O)NC(C)(C)C)c(=O)oc12 [drawing 157] : 3960
3) Cc1c(OC2CCN(C)CC2)ccc2cc(NC(=O)N(Cc3ccccc3)Cc3ccccc3)c(=O)oc12 [drawing 161] : 1210
4) COc1ccc(CNC(=O)Nc2cc3ccc(OC4CCN(C)CC4)c(C)c3oc2=O)cc1 : 680
5) Cc1ccc(CNC(=O)Nc2cc3ccc(OC4CCN(C)CC4)c(C)c3oc2=O)cc1 : 560
6) Cc1c(OC2CCN(C)CC2)ccc2cc(NC(=O)NC3CCCC3)c(=O)oc12 [drawing 154] : 2390
7) Cc1c(OC2CCN(C)CC2)ccc2cc(NC(=O)NCc3ccc(Oc4ccccc4)cc3)c(=O)oc12 : 230
8) Cc1c(OC2CCN(C)CC2)ccc2cc(NC(=O)NC(c3ccccc3)c3ccccc3)c(=O)oc12 [drawing 162] : 490
9) Cc1c(OC2CCN(C)CC2)ccc2cc(NC(=O)NCc3ccc(Cl)cc3)c(=O)oc12 : 1040

====

- System: MCF-7 (estrogen receptor positive breast cancer cells)
- Test Protocol: Anti-proliferation assay (MTS/PMS, 72 h), MCF-7
- Format: cell-based
- Experimental Conditions: Homo sapiens, MCF7; Table 7, prenylated phenyl ureas; Breast Cancer; read-out: IC50 MCF-3
- Procedure: Cells were maintained in a 1:1 mixture of Advanced DMEM/F12 (Gibco) supplemented with non-essential amino acids, L-glutamine (2 mM), streptomycin (500 μg/mL), penicillin (100 units/mL), and 10% FBS. […] At 72 h, the number of viable cells was determined using an MTS/PMS cell proliferation kit (Promega) per the manufacturer's instructions. […] IC50 values were calculated from separate experiments performed in triplicate using GraphPad Prism. […]
pIC50: −log10 of the molar value.
Readout Name: pIC50

1) COc1ccc(NC(=O)Nc2cc3ccc(OC4CCN(C)CC4)c(C)c3oc2=O)cc1CC=C(C)C [OMe] : 6.43
2) CC(=O)Oc1ccc(NC(=O)Nc2cc3ccc(OC4CCN(C)CC4)c(C)c3oc2=O)cc1CC=C(C)C [OAc] : 6.31
3) CC(C)=CCc1cc(NC(=O)Nc2cc3ccc(OC4CCN(C)CC4)c(C)c3oc2=O)ccc1O [OH] : 6.43

====

- Test system: MRC5
- Test Protocol: Anti-proliferation assay, MRC5 (normal)
- Format: cell-based
- Experimental Conditions: Homo sapiens, MRC5, Table 6, substituted phenyl ureas
- Description: Cells were maintained in a 1:1 mixture of Advanced DMEM/F12 (Gibco) supplemented with non-essential amino acids, L-glutamine (2 mM), streptomycin (500 μg/mL), penicillin (100 units/mL), and 10% FBS. […] At 72 h, the number of viable cells was determined using an MTS/PMS cell proliferation kit (Promega) per the manufacturer's instructions. […] IC50 values were calculated from separate experiments performed in triplicate using GraphPad Prism.
Rule: IC50 below 2 µM gives met. Equal to or above 2 µM gives not met.

1) Cc1c(OC2CCN(C)CC2)ccc2cc(NC(=O)Nc3ccc([N+](=O)[O-])cc3)c(=O)oc12 : not met
2) Cc1c(OC2CCN(C)CC2)ccc2cc(NC(=O)Nc3cccc(O)c3)c(=O)oc12 : not met
3) Cc1c(OC2CCN(C)CC2)ccc2cc(NC(=O)Nc3ccc(Cl)cc3)c(=O)oc12 : not met
4) COc1cc(NC(=O)Nc2cc3ccc(OC4CCN(C)CC4)c(C)c3oc2=O)cc(OC)c1OC : not met
5) Cc1c(OC2CCN(C)CC2)ccc2cc(NC(=O)Nc3ccc(C(C)C)cc3)c(=O)oc12 : met
6) Cc1c(OC2CCN(C)CC2)ccc2cc(NC(=O)Nc3cccc(C(F)(F)F)c3)c(=O)oc12 : met
7) Cc1c(OC2CCN(C)CC2)ccc2cc(NC(=O)Nc3ccc(F)cc3)c(=O)oc12 : not met
8) COc1ccc(C(C)(C)C)cc1NC(=O)Nc1cc2ccc(OC3CCN(C)CC3)c(C)c2oc1=O : not met
9) Cc1ccc(NC(=O)Nc2cc3ccc(OC4CCN(C)CC4)c(C)c3oc2=O)c(C)c1 : not met
10) CC(=O)c1cccc(NC(=O)Nc2cc3ccc(OC4CCN(C)CC4)c(C)c3oc2=O)c1 : not met
11) Cc1c(OC2CCN(C)CC2)ccc2cc(NC(=O)Nc3cc(Cl)cc(Cl)c3)c(=O)oc12 : not met

====

- System: PC-3
- Test Protocol: Anti-proliferation assay, PC-3
- Format: cell-based
- Experimental Conditions: Table 9, non-aryl ureas; Prostate Cancer
pIC50: −log10 of the molar value.
Readout Name: pIC50

1. Cc1c(OC2CCN(C)CC2)ccc2cc(NC(=O)NC(c3ccccc3)c3ccccc3)c(=O)oc12 [drawing 162] : 5.95
2. Cc1c(OC2CCN(C)CC2)ccc2cc(NC(=O)NCc3ccccc3)c(=O)oc12 [drawing 159] : 6.06
3. Cc1c(OC2CCN(C)CC2)ccc2cc(NC(=O)N(Cc3ccccc3)Cc3ccccc3)c(=O)oc12 [drawing 161] : 5.90
